# System: SR leukemia
# ASSAY_SUMMARY: NCI-60 one-dose screen, 48 h
# CONDITION_DETAILS: 10 µM unless noted
About 83,000 compounds went through this panel and 20% of them were active in at least one assay; those are over-represented in the sample as a whole. Calls of active or inactive are those of the source. The calls were made as follows: active = growth percent below 10; inactive = the rest.
Form entry, call: pick from Y for active, N for inactive

Example cases with answers are listed next.
> print(dat)
                                   molecule  class.name
1  CCCCC[C@H]1C/C=C2/C(=O)C=C[C@@H]2C/C=C\CCCC(=O)O1           Y
2  Cc1ncc(C(=O)Nc2ccc(CN3CCN(C)CC3)c(C(F)(F)F)c2)cc1C#Cc1cnc2cccnn12           Y
3  Cc1ccc(O)c(N2C(=NCc3ccco3)NS(=O)(=O)c3cnccc32)c1           N
4  CSc1nc2c(c(=O)[nH]1)C1(C(=O)Nc3ccccc31)c1c(nc(SC)[nH]c1=O)N2           N
5  COc1cccc(/C=N/NC(=O)c2ccccc2Nc2ccnc(C(F)(F)F)c2)c1O           N

In the following, a different molecule is considered.
What is the recorded call for this molecule in the test? CCn1c(O)c(/C=N/NC(=O)C(C)c2ccc(CC(C)C)cc2)sc1=S (stereo unspecified)
N

---

# Tested on: T-47D breast
# ASSAY_SUMMARY: NCI-60 one-dose screen, 48 h (100 = growth as untreated, 0 = no growth, -100 = all killed)
# CONDITION_DETAILS: 10 µM unless noted
The panel holds about 83,000 compounds, 20% with a hit somewhere; the sample as a whole holds those more often.
Measured growth of individual entries
The answer is to be given in %; state only the numeric part.

> print(dat)
                                   compound  experimental.result
1  O=C1CC(=NCC(=O)n2c(-c3ccccc3)nc3ccccc32)NN1                 89.4
2  CSc1nc2c(c(=O)[nH]1)C1(C(=O)Nc3ccccc31)c1c(nc(SC)[nH]c1=O)N2                  111
3  O=C1c2cccc3cccc(c23)C(=O)N1CCCCN1CCN(CCCCOc2ccc(-c3nc4ccc(N5CCOCC5)cc4[nH]3)cc2)CC1                 77.2

// field: growth; key: C=CC(=O)Nc1cccc(Nc2nc(SC)nc(-c3cccc([N+](=O)[O-])c3)c2C#N)c1 ; value = 42.7

// field: growth; key: COc1ccc(CCNc2nc3c(c(=O)n(Cc4ccc(Br)cc4)c(=O)n3C)n2C)cc1OC ; value = 66.2

// field: growth; key: CCNc1ncnc2c1cnn2C1CCCO1 (centres undefined) ; value = 104

// field: growth; key: CC/C=C\C[C@H]1C/C=C2/C(=O)C=C[C@H]2C/C=C\CCCC(=O)O1 ; value = 27.4

// field: growth; key: CCOC(=O)c1c(C)oc2ncnc(N3CCN(C(=O)COc4ccc(SC)cc4)CC3)c12 ; value = 61.7

// field: growth; key: COc1ccc(-c2nc3ccc(-c4nc5ccc(N6CCN(c7ccc(F)cc7)CC6)cc5[nH]4)cc3[nH]2)cc1OC ; value = 43.8

---

# Tested on: MALME-3M melanoma
# ASSAY_SUMMARY: NCI-60 one-dose screen, 48 h (100 = growth as untreated, 0 = no growth, -100 = all killed)
# CONDITION_DETAILS: 10 µM unless noted
This is part of a sample that, as a whole, favours compounds with a hit. Of some 83,000 tested, about 20% had one in any assay.
Measured growth of individual entries
The answer is to be given in %; state only the numeric part.

Solved entries (count: 3):
COMPOUND	growth (%)
FC(F)(F)c1nc2c(NCc3ccc(-c4ccccc4)cc3)cccc2[nH]1	71.4
CC(=O)O[C@H]1C(=O)[C@@]2(C)[C@H]([C@H](OC(=O)c3ccccc3)[C@]3(O)C[C@H](OC(=O)[C@H](OC(=O)CCC(=O)OC4CCC(S/N=C(N)/N=C(\N)N(C)C)CC4)[C@@H](NC(=O)c4ccccc4)c4ccccc4)C(C)=C1C3(C)C)[C@]1(OC(C)=O)CO[C@@H]1C[C@@H]2O (some centres undefined)	66.8
NS(=O)(=O)c1ccc(CN=C2NC(=O)S/C2=C\c2ccc(Br)cc2)cc1	93.8

// field: growth; key: O=C(/C=C/c1cccc([N+](=O)[O-])c1)c1ccc(O)c(CN2CCN(c3cc4c(cc3F)c(=O)c(C(=O)O)cn4C3CC3)CC2)c1 ; value = 78.2

---

# Tested on: NCI-H460 lung
# ASSAY_SUMMARY: NCI-60 one-dose screen, 48 h
# CONDITION_DETAILS: 10 µM unless noted
The panel holds about 83,000 compounds, 20% with a hit somewhere; the sample as a whole holds those more often. The source made the active and inactive calls. Rule for the calls: active = growth percent below 10; inactive = the rest.
Form entry, call: pick from active, inactive

Example cases with answers are listed next.
> print(dat)
                                   molecule  class.name
1  N#C/C(=C\c1ccc(-c2ccc(Cl)c(Cl)c2)o1)c1nc(-c2ccco2)cs1    inactive
2            Clc1ccc2nc3nc4ccc[nH]c4cc3c2c1    inactive
3  O=C1/C(=C/c2ccc(OCCCOc3ccc(Cl)cc3)cc2)N=C2SCCCN12    inactive
4  C=CC(COC(c1ccccc1)(c1ccccc1)c1ccccc1)N(CC)CC (configuration not stated)    inactive
5   CC1CCNC(C)C1 (configuration not stated)    inactive
6  COc1ccc(Nc2c3c4c(cccc4[nH]c2=O)C(=O)c2ccccc2-3)cc1      active
7  O=C1NC(=O)C(c2ccc(Cl)cc2Cl)N1 (configuration not stated)    inactive
8            CCc1c(Nc2ccccc2C)nc(N)[nH]c1=O    inactive

What is the recorded call for this molecule in the test? C=CC(=O)Nc1cccc(-c2nc(SC)nc(NCCN3CCOCC3)c2C#N)c1
inactive

What is the recorded call for this molecule in the test? N#CN1CC[C@H](C(=O)Nc2cc3cc(C(N)=O)ccc3cn2)C1
active

What is the recorded call for this molecule in the test? COc1cc(/C=C/c2cc(/C=C/c3ccc(O)c(OC)c3)n(-c3c(C)cccc3C)c(=O)n2)ccc1O
active

What is the recorded call for this molecule in the test? O=C1NC(=Nc2ccc(O)cc2)S/C1=C\c1cccc(Cl)c1
inactive

What is the recorded call for this molecule in the test? CN1CCN(c2nc(NCCCNc3ccnc4cc(Cl)ccc34)c3ccccc3n2)CC1
inactive

---

# Tested on: EKVX NSCLC
# ASSAY_SUMMARY: NCI-60 one-dose screen, 48 h
# CONDITION_DETAILS: 10 µM unless noted
Compounds without any hit were thinned out: in the full panel of roughly 83,000, 20% have a hit. The source made the active and inactive calls. How the source made its calls: active means growth percent below 10; inactive means the rest.
Form entry, call: pick from active, inactive

> print(dat)
                                   compound  class.name
1  Cn1c(NCCc2ccc(O)c(O)c2)nc2c1c(=O)n(Cc1ccc(Cl)c(Cl)c1)c(=O)n2C    inactive
2  O=C1Nc2ccc(Br)cc2C12Oc1ccccc1C1CC(c3ccc(F)cc3)=NN12 (stereo unspecified)    inactive
3  COc1ccc(SC2c3ccc(C)cc3Oc3nc(N)c(C#N)c(N)c32)cc1 (stereo unspecified)      active
4  N#Cc1nnn(-c2ccc(S(N)(=O)=O)cc2)c1NCC(=O)c1ccccc1    inactive
5      COc1ccc2c(c1)C(=O)/C(=C/c1ccccn1)CC2    inactive

In the following, a different compound is considered.
What is the recorded call for this compound in the test? Cc1cc(N2CCCCCC2)nc(NC2CCCC(Nc3ccnc4cc(Cl)ccc34)C2)n1 (stereo unspecified)
active

---

# System: SN12C renal
# ASSAY_SUMMARY: NCI-60 one-dose screen, 48 h
# CONDITION_DETAILS: 10 µM unless noted
# Description: Growth inhibition of the SN12C human tumor cell line is measured as a screen for anti-cancer activity. Cells are grown in 96 well plates and exposed to the test compound for 48 hours. Compounds are tested at a single concentration, which is 10^-5 M for most compounds. The reported endpoint is percent growth (GI% or GIPRCNT), where numbers from 0 - 100% represent growth inhibition, and numbers from -100% - 0 represent cell death. For example, a value of 40 represents 60% growth inhibition. […]
The panel holds about 83,000 compounds, 20% with a hit somewhere; the sample as a whole holds those more often. The source made the active and inactive calls. How the source made its calls: active means growth percent below 10; inactive means the rest.
Form entry, call: pick from active, inactive

Example cases with answers are listed next.
> print(dat)
                                   compound  class.name
1  CN1CCN(c2ccc(Nc3c4ccccc4nc4ccccc34)cc2)CC1    inactive
2  CC(=O)c1cc2c(N)c(C(=O)Nc3cccc(F)c3C)sc2nc1C    inactive
3  O=C(O)c1ccc(N=CC(=O)c2ccc(-c3ccccc3)cc2)cc1    inactive
4  Cc1cc(C)nc(SC2=C(Nc3ccc(O)cc3)C(=O)N(Cc3ccccc3)C2=O)n1    inactive
5  CC1=C[C@H]2c3c(c(O)c(O)c4oc5c(C)cccc5c(=O)c34)[C@H](c3cc(O)c(O)c4oc5c(C)cccc5c(=O)c34)[C@H]2C(C)(C)C1    inactive

What is the recorded call for this compound in the test? Cc1ccc(/C=C2\SC(=S)N(CC(=O)NCCCN3CCOCC3)C2=O)cc1
inactive

What is the recorded call for this compound in the test? O=c1c2c3c(sc2nc(N/N=C/c2cn(-c4ccccc4)nc2-c2ccc(Cl)cc2)n1Cc1ccccc1)CCCC3
inactive

What is the recorded call for this compound in the test? O=C1C=C(O)C(=O)C(CC2=C(O)C(=O)C=C(O)C2=O)=C1O
inactive

What is the recorded call for this compound in the test? O=C(O)c1ccc(NC(=O)c2ccc(-c3cccc([N+](=O)[O-])c3)o2)cc1
inactive

What is the recorded call for this compound in the test? C(=C\c1nccc2c1[nH]c1ccccc12)/c1ccccc1
inactive

Ref: PubChem BioAssay (NCI)
